System: MV4-11
Assay: CellTox Green cytotoxicity fluorescence relative to DMSO vehicle (fold of vehicle RFU); higher = more cell death (loss of membrane integrity), active = 2 or more
Conditions: 0.1 µM; 24 h
measurementKind: CellTox Green cytotoxicity fluorescence
Reply with just the number.

Check out these entries, answers already filled in.
{"compound": "O=C1C(=O)N(Cc2ccc(Cl)c(Cl)c2)c2ccccc21", "testSystem": "MV4-11", "observedMeasurement": 1.02}
{"compound": "CN[C@@H](C)C(=O)N[C@H](C(=O)N1CCC[C@H]1c1nc(C(=O)c2ccc(F)cc2)cs1)C1CCCCC1", "testSystem": "MV4-11", "observedMeasurement": 0.975}
{"compound": "Cc1nc(Nc2ncc(C(=O)Nc3c(C)cccc3Cl)s2)cc(N2CCN(CCO)CC2)n1 [Dasatinib Monohydrate]", "testSystem": "MV4-11", "observedMeasurement": 0.993}

// sample COc1nc(-c2ccc3c(c2)OCO3)n(-c2ccc(NC(=O)CSc3ccccc3)cc2)n1 , its CellTox Green cytotoxicity fluorescence was 1.01

// sample COc1cc(C(=O)O)ccc1NC(=O)[C@@H]1N[C@@H](CC(C)(C)C)[C@](C#N)(c2ccc(Cl)cc2F)[C@H]1c1cccc(Cl)c1F , its CellTox Green cytotoxicity fluorescence was 0.971

// sample CC(=NNC(=S)N1CCC1)c1ccccn1 , its CellTox Green cytotoxicity fluorescence was 0.983

// sample CCCC[C@@H](C=O)NC(=O)[C@H](CC(C)C)NC(=O)OCc1ccccc1 , its CellTox Green cytotoxicity fluorescence was 1.01
